# MEASUREMENT_PROTOCOL: Selectivity index, ratio of EC50 for HEK293T cells to IC50 for blood stage of chloroquine-resistant Plasmodium falciparum W2 infected in human RBC
# Format: functional, HEK-293T
ASSAY_METRIC: Selectivity Index
Numbers only.

Here's what some known entries look like.
Fc1ccc(-c2ccc3/c(=N/c4ccc(-c5ccccc5)cc4)ccn(CCCN4CCCCC4)c3c2)cc1 : 138
c1ccc(-c2ccc(/N=c3\ccn(CCCN4CCCCC4)c4cc(Nc5ccccn5)ccc34)cc2)cc1 : 21
c1ccc(-c2ccc(/N=c3\ccn(CCCN4CCCCC4)c4cc(-c5cnc6ccccc6c5)ccc34)cc2)cc1 : 143

// batch mode: one Selectivity Index value per listed entry
1. Clc1ccc2/c(=N/c3ccc(Oc4ccccc4)cc3)ccn(CCCN3CCCCC3)c2c1
2. Clc1ccc2c(c1)/c(=N/c1ccc(-c3ccccc3)cc1)ccn2CCCN1CCCCC1
3. CCN(CC)CCn1cc/c(=N\c2ccc(-c3ccccc3)cc2)c2ccc(C(F)(F)F)cc21
4. FC(F)(F)c1ccc2/c(=N/c3ccc(-c4ccccc4)cc3)ccn(CCCN3CCCCC3)c2c1
5. Clc1ccc2/c(=N/c3ccc(-c4ccccc4)cc3)ccn(CCCN3CCCCC3)c2c1
6. FC(F)(F)c1ccc2c(c1)/c(=N/c1ccc(-c3ccccc3)cc1)ccn2CCCN1CCCCC1

191
219
73
158
290
38

Selectivity Index in this record for `CCN(CC)CCn1cc/c(=N\c2ccc(-c3ccccc3)cc2)c2ccc(Cl)cc21` : 74

====

What pEC50 was measured for each of the following?
# System: HEK-293T
# MEASUREMENT_PROTOCOL: Cytotoxicity against HEK293T cells
# Format: cell-based
# APPLIED_CONDITIONS: Homo sapiens
One number for each entry, as −log10 of the molar value.

Here's what some known entries look like.
CCN(CC)CCn1cc/c(=N\c2ccc(-c3ccccc3)cc2)c2ccc(Cl)cc21 : 4.43
Fc1ccc(-c2ccc3/c(=N/c4ccc(-c5ccccc5)cc4)ccn(CCCN4CCCCC4)c3c2)cc1 : 5.12
FC(F)(F)c1ccc2c(c1)/c(=N/c1ccc(-c3ccccc3)cc1)ccn2CCCN1CCCCC1 : 4.63

pEC50 in this record for `c1ccc(-c2ccc(/N=c3\ccn(CCCN4CCCCC4)c4cc(Nc5ccccn5)ccc34)cc2)cc1` : 5.13

====

# MEASUREMENT_PROTOCOL: Metabolic stability in rat liver microsomes assessed as compound remaining at 1 uM after 6 hrs by HPLC analysis in presence of NADPH-regenerating system
# Format: ADME, Microsome
# APPLIED_CONDITIONS: read-out: Stability
What remaining at 6 h, 1 µM was measured for each of the following?
Answers are plain numbers, in %.

FC(F)(F)c1ccc2/c(=N/c3ccc(-c4ccccc4)cc3)ccn(CCCN3CCCCC3)c2c1 : 65
Clc1ccc2/c(=N/c3ccc(Oc4ccccc4)cc3)ccn(CCCN3CCCCC3)c2c1 : 73

remaining at 6 h, 1 µM in this record for `CCN(CC)CCn1cc/c(=N\c2ccc(-c3ccccc3)cc2)c2ccc(Cl)cc21` : 68

====

What Selectivity Index was measured for each of the following?
# MEASUREMENT_PROTOCOL: Selectivity index, ratio of EC50 for HEK293T cells to IC50 for blood stage of chloroquine-resistant Plasmodium falciparum W2 infected in human RBC
# Format: functional, HEK-293T

CCN(CC)CCCn1cc/c(=N\c2ccc(-c3ccccc3)cc2)c2ccc(C(F)(F)F)cc21 : >694
CCN(CC)CCCn1cc/c(=N\c2ccc(-c3ccccc3)cc2)c2ccc(Cl)cc21 : >662
FC(F)(F)c1ccc2/c(=N/c3ccc(-c4ccccc4)cc3)ccn(CCN3CCCC3)c2c1 : >442

// batch mode: one Selectivity Index value per listed entry
1. CCN(CC)CCCCn1cc/c(=N\c2ccc(-c3ccccc3)cc2)c2ccc(Cl)cc21
2. Fc1ccc(-c2ccc3/c(=N/c4ccccc4)ccn(CCCN4CCCCC4)c3c2)cc1
3. Clc1ccc2/c(=N/c3ccccc3)ccn(CCCN3CCCCC3)c2c1
4. Clc1ccc(/N=c2\ccn(CCCN3CCCCC3)c3cc(Cl)ccc23)cc1
5. Cc1ccc(/N=c2\ccn(CCCN3CCCCC3)c3cc(Cl)ccc23)cc1
6. CCN(CC)CCCCn1cc/c(=N\c2ccc(-c3ccccc3)cc2)c2ccc(C(F)(F)F)cc21
7. Clc1ccc2/c(=N/c3ccc(Br)cc3)ccn(CCCN3CCCCC3)c2c1
8. Clc1ccc2/c(=N/c3ccc(-c4ccccc4)cc3)ccn(CCN3CCCC3)c2c1

[">1479", ">463", ">366", ">386", ">302", ">1988", ">1351", ">900"]

Selectivity Index in this record for `Fc1ccc(/N=c2\ccn(CCCN3CCCCC3)c3cc(Cl)ccc23)cc1` : >271
